# System: NCI-H522 lung
# measurement description: NCI-60 one-dose screen, 48 h (100 = growth as untreated, 0 = no growth, -100 = all killed)
# condition set: 10 µM
About 83,000 compounds went through this panel and 20% of them were active in at least one assay; those are over-represented in the sample as a whole.
Attribute: growth
assay readout: growth (%)

record_smiles=O=S(=O)(Nc1ccc(Cl)c(Cl)c1)c1ccc(-c2cnc(C3CC3)o2)cc1 quantitative_readout=6.78
record_smiles=COc1cc(C(=O)/C=C/c2c(-c3cccs3)nc3sccn23)cc(OC)c1OC quantitative_readout=-13
record_smiles=O=C(Nc1ccccc1)Oc1cccc2cccnc12 quantitative_readout=-4.77
record_smiles=COc1ccc(-n2ncc3c2ccc2cc(S(=O)(=O)c4ccccc4)c(=O)n(C)c23)cc1 quantitative_readout=33.2
record_smiles=Cc1cc(=O)c2c(C)ccc(C)c2[nH]1 quantitative_readout=96.2
record_smiles=COc1ccc(-c2csc3c2-n2cccc2C3=O)cc1O quantitative_readout=-22.5

###

# Tested on: NCI-H460 lung
# measurement description: NCI-60 one-dose screen, 48 h (100 = growth as untreated, 0 = no growth, -100 = all killed)
# condition set: 10 µM unless noted
About 83,000 compounds went through this panel and 20% of them were active in at least one assay; those are over-represented in the sample as a whole.
assay readout: growth (%)

compound=CCOC(=O)c1c(Cl)c2c(n1Cc1cc(OC)cc(OC)c1)-c1oncc1CCC2 quantitative_readout=12.8
compound="CCOC(=O)c1cnn(CC(O)c2ccc(F)cc2)c1NC(=O)Nc1ccccc1F (stereo not given)" quantitative_readout=105
compound=Cl.Fc1c[c-]c(-c2ccccn2)c(F)c1.[Pt].c1ccc([PH+](CC[PH+](c2ccccc2)c2ccccc2)c2ccccc2)cc1 quantitative_readout=-75.3
compound=Cc1ccc(S(=O)(=O)c2ccc3[nH]c(=O)[nH]c(=O)c3c2)cc1 quantitative_readout=114
compound=N#Cc1c(-c2cccc(F)c2)cc(-c2ccc(Br)s2)[nH]c1=O quantitative_readout=38.6

###

# Tested on: COLO 205 colon
# measurement description: NCI-60 one-dose screen, 48 h (100 = growth as untreated, 0 = no growth, -100 = all killed)
# condition set: 10 µM unless noted
# Experimental: Cells are grown in 96 well plates and exposed to the test compound for 48 hours. Compounds are tested at a single concentration, which is 10^-5 M for most compounds. The reported endpoint is percent growth (GI% or GIPRCNT), where numbers from 0 - 100% represent growth inhibition, and numbers from -100% - 0 represent cell death. For example, a value of 40 represents 60% growth inhibition. A value of 0 means no net growth occurred over the course of the experiment. […]
The panel holds about 83,000 compounds, 20% with a hit somewhere; the sample as a whole holds those more often.
Attribute: growth
assay readout: growth (%)

molecule=O=c1[nH]c(=S)[nH]c(=O)n1Cc1cccc2ccccc12 quantitative_readout=120
molecule=Cc1nc2nc(C(F)(F)F)[nH]c2nc1C quantitative_readout=108
molecule="CC1=CN2C(=NC3=C(CCCC/C3=C\\c3ccccc3)C2c2ccccc2)S1 (stereo not drawn)" quantitative_readout=122
molecule="COc1ccc(OC2=C(C#N)C(=N)N3c4ccccc4Sc4ccccc4C3N2)cc1 (stereo not drawn)" quantitative_readout=103
molecule=FC(F)(F)Oc1ccc2c(c1)C[C@H]1C[C@@H](c3ccoc3)N2O1 quantitative_readout=110
molecule=C(=C\c1ccccc1)/CN1CCN(C(c2ccccc2)c2ccccc2)CC1 quantitative_readout=101
molecule=CN(C)c1ccc(/C=C(\C#N)c2cc3ccccc3n2C)cc1 quantitative_readout=-17.2
molecule="COc1cccc(C2C3=C(COC3=O)N(CCO)c3cc4c(cc32)OCO4)c1 (stereo not drawn)" quantitative_readout=-27.1
molecule=CCN1CCN(c2ccc(Nc3ncc4ccc5ncn(C(C)C)c5c4n3)nc2)CC1 quantitative_readout=-40.4
molecule="COC1(OC)C2(Cl)C=C(c3ccccc3)C1(Cl)C(Cl)=C2Cl (stereo not drawn)" quantitative_readout=108
molecule=CCN(C(=O)c1ccc2c3c(cccc13)C=C2)c1ccccc1 quantitative_readout=119
molecule="C=C(C)CCCC(C)CC#N (stereo not drawn)" quantitative_readout=106
molecule=O=C(O)c1ccccc1Oc1cc(-c2ccco2)nc(OCCBr)n1 quantitative_readout=109
molecule=COc1c(Cl)ccc2c(-c3nc4cc(Cl)c(F)cc4s3)cc(=O)oc12 quantitative_readout=124
molecule=O=C(NCc1cccnc1)c1ccc([N+](=O)[O-])o1 quantitative_readout=-77
molecule=CN1CCn2c(c(Sc3ccc(C(=O)NO)cc3)c3ccccc32)C1=O quantitative_readout=1.64
molecule=Clc1ccc(Nc2ccnc(N3CCN(c4ccnc5cc(Cl)ccc45)CC3)n2)cc1 quantitative_readout=46.5
molecule=O=C1C=CC(=O)N1CCCCCCCCCCN1C(=O)C=CC1=O quantitative_readout=65.7
molecule=O=S(=O)(OCCO)c1ccccc1 quantitative_readout=118
molecule=Cc1oc2c(c1C(=O)N1CC[C@@H](N)C1)C(=O)c1c(c(O)c3ccccc3c1O)C2=O quantitative_readout=13.1
molecule=Cc1ccc(N=c2nc3sc4c(C)ccc(C)c4n3c(N)c2C#N)cc1 quantitative_readout=108
molecule="Oc1ccc2ccccc2c1C1NN=C(c2ccccc2)S1 (stereo not drawn)" quantitative_readout=16.6
molecule=FC(F)(F)c1cc(CNc2nc(Cl)ncc2Br)cc(C(F)(F)F)c1 quantitative_readout=103

###

Attribute: growth
# Tested on: A549/ATCC NSCLC
# measurement description: NCI-60 one-dose screen, 48 h (100 = growth as untreated, 0 = no growth, -100 = all killed)
# condition set: 10 µM unless noted
About 83,000 compounds went through this panel and 20% of them were active in at least one assay; those are over-represented in the sample as a whole. Active and inactive are the calls of the source. Rule for the calls: active = growth percent below 10; inactive = the rest.
assay readout: growth

record_smiles=Clc1ccccc1Nc1ccc2nnc(-c3ccncc3)n2n1 tested_target="A549/ATCC NSCLC" result="89.9% (inactive)"
record_smiles=FC(F)(F)c1cc(CNc2nc(Cl)ncc2Br)cc(C(F)(F)F)c1 tested_target="A549/ATCC NSCLC" result="83% (inactive)"
record_smiles=COc1ccccc1CNCCCCCCCCCCCCN1C(=O)c2ccc3c4c(ccc(c24)C1=O)C(=O)N(CCCCCCCCCCCCNCc1ccccc1OC)C3=O tested_target="A549/ATCC NSCLC" result="75.4% (inactive)"
record_smiles=COc1ccc(C2OCC(C)(C)CO2)cc1OC tested_target="A549/ATCC NSCLC" result="100% (inactive)"
record_smiles=CCCCC(CCCC)(S(=O)(=O)CC)S(=O)(=O)CC tested_target="A549/ATCC NSCLC" result="94.3% (inactive)"
record_smiles=O=C1/C(=C/c2ccc([N+](=O)[O-])cc2)Oc2ccc(O)cc21 tested_target="A549/ATCC NSCLC" result="70.8% (inactive)"
record_smiles=COc1ccc(C(=O)COc2cccc(/C=C3\CSc4ccc(C)cc4C3=O)c2)cc1 tested_target="A549/ATCC NSCLC" result="96% (inactive)"
record_smiles=COc1cc2nc(SCc3cc(OC)c(OC)c(OC)c3)n(-c3ccccc3OC)c(=O)c2cc1OC tested_target="A549/ATCC NSCLC" result="88% (inactive)"
record_smiles=Cc1cc(O)cc2c1[C@H]1CC[C@]3(C)[C@@H](O)CC[C@H]3[C@@H]1C=C2 tested_target="A549/ATCC NSCLC" result="86.9% (inactive)"
record_smiles=COc1cc2cc(Oc3ccc(NC(=O)Nc4cccc(C(F)(F)F)c4)cc3)c(C)nc2cc1OCCN1CCCCC1 tested_target="A549/ATCC NSCLC" result="-56.2% (active)"

###

Attribute: growth
# Test system: OVCAR-3 ovarian
# measurement description: NCI-60 one-dose screen, 48 h (100 = growth as untreated, 0 = no growth, -100 = all killed)
# condition set: 10 µM unless noted
This is part of a sample that, as a whole, favours compounds with a hit. Of some 83,000 tested, about 20% had one in any assay.
assay readout: growth (%)

compound="COc1cc(/C=N/NC(=O)c2cnn3c2NC(c2ccccc2)C3)cc(OC)c1OC (stereo unspecified)" tested_target="OVCAR-3 ovarian" quantitative_readout=10.4
compound=FC(F)(F)c1cc(CNc2nc(Cl)ncc2Br)cc(C(F)(F)F)c1 tested_target="OVCAR-3 ovarian" quantitative_readout=85.6
compound=CC(=O)Nc1ccccc1-c1n[nH]c(=O)[nH]c1=O tested_target="OVCAR-3 ovarian" quantitative_readout=113
compound=CCCCc1ccc(NC(=O)C(F)(F)F)cc1 tested_target="OVCAR-3 ovarian" quantitative_readout=106
compound="Cc1ccc(S(=O)(=O)N2CCc3ccc(O)c4c3C2Cc2ccc3c(c2-4)OCO3)cc1 (stereo unspecified)" tested_target="OVCAR-3 ovarian" quantitative_readout=-47.7
compound=CCCCNNC(=O)c1ccc(Br)cc1 tested_target="OVCAR-3 ovarian" quantitative_readout=68.8
